System: DU-4475
Assay: normalised response (% of control), CellTiter-Glo; higher = more viable cells (100 = DMSO, 0 = benzethonium chloride kill control)
Settings: incubation time: 72 h
Can you tell me normalised response for the items I'm about to list?
Provide the reading as a plain figure in %.

**Q:** For the compound shown here, CCNC(=O)CCC/C=C\C[C@@H]1[C@@H](/C=C/[C@@H](O)CCc2ccccc2)[C@H](O)C[C@@H]1O [Bimatoprost] (5.5 nM) , give the reported normalised response.
**A:** 99.5

**Q:** Moving on to CC[C@H](CO)Nc1nc(NCc2ccccc2)c2ncn(C(C)C)c2n1 [Seliciclib] (10 nM)
**A:** 103

**Q:** Moving on to CCN(CC)CCCC(C)Nc1ccnc2cc(Cl)ccc12 (configuration not stated) [Chloroquine] (10 nM)
**A:** 92.2

**Q:** Moving on to COc1cc(Nc2c(C#N)cnc3cc(OCCCN4CCN(C)CC4)c(OC)cc23)c(Cl)cc1Cl [Bosutinib] (1 nM)
**A:** 101

**Q:** Moving on to C/C(=C\c1csc(C)n1)[C@@H]1C[C@@H]2O[C@]2(C)CCC[C@H](C)[C@H](O)[C@@H](C)C(=O)C(C)(C)[C@@H](O)CC(=O)N1 [Ixabepilone] (0.1 nM)
**A:** 101

**Q:** Moving on to COc1cc(Nc2c(C#N)cnc3cc(OCCCN4CCN(C)CC4)c(OC)cc23)c(Cl)cc1Cl [Bosutinib] (10 nM)
**A:** 97.7

**Q:** Moving on to Nc1ccn([C@@H]2O[C@H](CO)[C@@H](O)C2(F)F)c(=O)n1 [Gemcitabine] (1 nM)
**A:** 94
